These measurements were taken from the supplement of paper PMC10567573.

B1: MMP1 (parent)
chain: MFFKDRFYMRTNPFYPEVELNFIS

Variants of: B1
assay remarks: protein stability index of a GFP-peptide fusion (GPS, HEK-293T) (PSI 1-6); higher = more stable;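 further: lentivirally expressed fusions sorted by FACS into six bins by GFP to DsRed ratio, PSI derived from sequencing read proportions per bin multiplied by bin number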
measurement context: c terminus: a fixed tail appended
# reported protein stability index; entries follow
quantity measured: protein stability index

> print(dat)
    mutations        quantity.measured  value
 1       F14C  protein stability index   2.65
 2        F3W  protein stability index   3.61
 3       F14R  protein stability index    3.1
 4       F14E  protein stability index   3.46
 5       F14A  protein stability index   3.69
 6       N12F  protein stability index   3.09
 7       L20W  protein stability index   3.09
 8        M9C  protein stability index    3.4
 9       Y15M  protein stability index   1.97
10       L20F  protein stability index   3.19
11       V18M  protein stability index   2.52
12        Y8F  protein stability index   2.64
13       R10N  protein stability index   3.09
14       F22N  protein stability index   2.15
15        Y8K  protein stability index   1.99
16        R6E  protein stability index   2.85
17       P13W  protein stability index    3.9
18        Y8H  protein stability index   2.22
19       I23W  protein stability index   3.27
20       L20K  protein stability index   3.34
21        F2I  protein stability index   2.59
22        F7A  protein stability index    3.4
23        M1H  protein stability index   2.05
24       P16S  protein stability index   2.96
25       E17D  protein stability index   1.97
